This collection of values is drawn from patent US20110165066A1.

# assayedTarget: T1, human IL-13 variant (R130Q) (human, UniProt P35225 35-146)
# T1 construct: called R110Q in the assay descriptions (mature numbering); also called h IL-13v; hIL-13v
# T1 sequence (P35225 35-146 limits assumed, stated change not applied): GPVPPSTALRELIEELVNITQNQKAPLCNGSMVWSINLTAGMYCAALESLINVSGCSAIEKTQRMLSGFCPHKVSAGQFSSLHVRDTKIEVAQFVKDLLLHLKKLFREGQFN
# runDescription: SPR (Biacore), mAb captured, IL-13 as analyte
Reported Kd values for the following binders.
Return type: number; implicit unit nM.

Worked examples follow.
[[record]]
binder = "25C8 (antibody, V domains shown) VH: QVQLQQPGAELVRPGASVQLSCKASGYTFTSSWIHWVNQRPGQGLEWIGMIHPSDSETRLNQKFKDKATLTVDKSSSTAYMQLSSPTSEDSAVYYCASTATDFDYWGQGTTLTVSS VL: DVVLTQTPLSLPVNIGDQASISCKSTKSLLNSDGFTYLDWYLQKPGQSPQLLIYLVSNRFSGAPDRFSGSGSGTDFTLKISRVEAEDLGVYYCFQHNYLPLTFGAGTNLELKR"
unitdescriptor = "nM"
measuredvalue = 0.0631

[[record]]
binder = "5D3 (antibody, V domains shown) VH: QVQLKESGPGLVAPSQSLSITCTVSGFSLTGYNINWVRQPPGKGLEWLGLIWGDGNTAFNSALKSRLSISKDNSKSQVFLKLNSLQTDDTARYYCARDGYYPYAIKYWGQGTSVTVSS VL: NIVLTQSPASLAVSLGQRATISCRASETVDSYGNSFMHWYQQKPGQPPKLLIYLASNLESGVPARFSGSGSRTDFTLTIDPVEADDAATYYCQQNNEDPRTFGGGTKLEIKR"
unitdescriptor = "nM"
measuredvalue = 0.387


Return reported Kd; argument: 3E5 (antibody, V domains shown) VH: QVQLKESGPGLVAPSQSLSITCTVSGFSLTGSSINWVRQPPGKGLEWLGMIWGDGRIDYNSVLKSRLSISKDSSKSQVFLKMNSLQADDTARYYCARDGYYPYAMVYWGQGTSVTVSS VL: NIVLTQSPASLAVSLGQRATIFCRASESVDSYGNSFMHWYQQKSGQPPKLLIYLASNLESGVPARFSGSGSRTDFTLTIDPVEADDAATFYCQQNNENPRTFGGGTKLEIKR
0.253
